TARGET_SYSTEM: Metallo-beta-lactamase VIM-2 (Klebsiella pneumoniae, UniProt Q3Y6Q3)
ASSAY_NOTES: Direct Competition Assay
MEASUREMENT_LABEL: pKi
Please treat pKi as minus the base-10 logarithm of the molar concentration.

Example entries begin here.
Give measured pKi for CC1(C)S[C@@H]2CS[C@@H](CS)N2[C@H]1C(=O)O [D-VC26] (Metallo-beta-lactamase VIM-2 (Klebsiella pneumoniae, UniProt Q3Y6Q3)). 4.85

Give measured pKi for CC1(C)S[C@H]2CS[C@H](CS)N2[C@@H]1C(=O)O [L-VC26] (Metallo-beta-lactamase VIM-2 (Klebsiella pneumoniae, UniProt Q3Y6Q3)). 5.42

Give measured pKi for O=C(O)[C@@H]1CS[C@H]2CS[C@H](CS)N21 [L-CS319] (Metallo-beta-lactamase VIM-2 (Klebsiella pneumoniae, UniProt Q3Y6Q3)). 5.43

Kindly consider the entry below.
Give measured pKi for O=C(O)[C@H]1CS[C@@H]2CS[C@@H](CS)N12 [D-CS319] (Metallo-beta-lactamase VIM-2 (Klebsiella pneumoniae, UniProt Q3Y6Q3)). 5.27

----------
Here's a batch of molecules along with measured Ki for VIM-24 (Klebsiella pneumoniae).
Quick note: give the figure in µM, leave out the unit.

Example entries begin here.
Give measured Ki for CC1(C)S[C@@H]2CS[C@@H](CS)N2[C@H]1C(=O)O [D-VC26] (VIM-24 (Klebsiella pneumoniae)). 12

Give measured Ki for O=C(O)[C@H]1CS[C@@H]2CS[C@@H](CS)N12 [D-CS319] (VIM-24 (Klebsiella pneumoniae)). 11

Give measured Ki for O=C(O)[C@@H]1CS[C@H]2CS[C@H](CS)N21 [L-CS319] (VIM-24 (Klebsiella pneumoniae)). 6

Kindly consider the entry below.
Give measured Ki for CC1(C)S[C@H]2CS[C@H](CS)N2[C@@H]1C(=O)O [L-VC26] (VIM-24 (Klebsiella pneumoniae)). 4.9
